B1: VPS39 (parent)
chain: LRLENNHCHIEESEHVLKKAHKYS

Variants of: B1
Procedure details: protein stability index of a GFP-peptide fusion (GPS, HEK-293T) (PSI 1-6); higher = more stable;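 further: lentivirally expressed fusions sorted by FACS into six bins by GFP to DsRed ratio, PSI derived from sequencing read proportions per bin multiplied by bin number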
Condition details: c terminus: a fixed tail appended
What protein stability index was measured for each of the following?
Form field (numeric): enter value without unit.

Item under review: `V16S` . Reported protein stability index? 2.65

Again, but for `L17H` 1.55

# iterate: `N6G` 2.66

Now give it for `H7T` too. 2.88

Param item: `H7Y` 2.79

Same for `K22R` 2.34

Could you do the same for `H21A` , please? 3.18

Okay, and `H15N` ? 3.07

Next up: `E14M` 1.73

Another variant: `N5Y` 2.37

Another variant to check: `I10N` 2.73
